Kindly supply the reported inhibition values for the records listed here.
biological target: DNA-3-methyladenine glycosylase (Homo sapiens) (UniProt P29372); conditions: Compound Concentration 10.0 uM, Hit No;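 further: enzyme assay where MPG cuts a quenched duplex DNA oligonucleotide probe, paired with APE1 for strand incision and turnover, read as fluorescence at 594 nm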
Sequence (P29372 whole entry): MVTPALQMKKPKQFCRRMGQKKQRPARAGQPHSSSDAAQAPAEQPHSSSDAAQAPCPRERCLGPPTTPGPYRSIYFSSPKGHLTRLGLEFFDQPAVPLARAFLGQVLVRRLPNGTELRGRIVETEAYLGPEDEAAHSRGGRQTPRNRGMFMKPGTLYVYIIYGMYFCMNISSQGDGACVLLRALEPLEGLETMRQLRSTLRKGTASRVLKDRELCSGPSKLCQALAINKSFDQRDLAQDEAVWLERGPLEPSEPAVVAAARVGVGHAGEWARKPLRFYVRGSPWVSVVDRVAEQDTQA
Description: Inhibition of MPG by quantifying inhibition of MPG-mediated cleavage and dissociation of quenched duplex DNA oligonucleotides, measured as fluorescence at 594 nm. To generate a functional strand incision and increase turn-over this assay is coupled to APE1.
Respond numerically; units are % and should not be typed.

// field: inhibition; key: `CN[C@@H]1CCc2[nH]c3ccc(C(N)=O)cc3c2C1` ; value = -3.1

// field: inhibition; key: CS(=O)(=O)Nc1c(O)ccc2c1CCCC2C1=NCCN1 (stereo not given) ; value = 2.87

// field: inhibition; key: `O=C(NCC(=O)N1CC[C@H](N[C@H]2CC[C@@](O)(c3ccc(-c4ncccn4)cn3)CC2)C1)c1cccc(C(F)(F)F)c1` ; value = -2.02

// field: inhibition; key: `COc1cccc2c1c(NS(=O)(=O)c1ccc(Cl)s1)nn2Cc1cccc(CNC(=O)C(C)(C)O)c1` ; value = -4.44

// field: inhibition; key: `C[C@H](C[C@H](N)C(=O)O)C(=O)O` ; value = 14.2

###

molecular target: Uracil-DNA glycosylase (Homo sapiens) (UniProt P13051); settings: Compound Concentration 10.0 uM, Hit No
Sequence (P13051 whole entry): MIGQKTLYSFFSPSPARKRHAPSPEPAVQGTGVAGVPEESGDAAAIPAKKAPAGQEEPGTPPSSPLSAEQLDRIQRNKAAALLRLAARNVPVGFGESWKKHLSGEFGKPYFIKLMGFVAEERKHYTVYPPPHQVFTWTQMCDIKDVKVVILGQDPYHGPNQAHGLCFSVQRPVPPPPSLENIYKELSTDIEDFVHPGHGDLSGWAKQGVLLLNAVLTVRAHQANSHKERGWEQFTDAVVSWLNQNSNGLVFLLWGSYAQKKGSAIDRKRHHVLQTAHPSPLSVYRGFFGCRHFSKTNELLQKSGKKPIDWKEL
Description: Inhibition of UNG by quantifying inhibition of UNG-mediated cleavage and dissociation of quenched duplex DNA oligonucleotides, measured as fluorescence at 594 nm. To generate a functional strand incision and increase turn-over this assay is coupled to APE1.
Kindly supply the reported inhibition values for the records listed here.
Respond numerically; units are % and should not be typed.

Record `CC(C)(O)CCn1c(=O)n(C(=O)N[C@H](C(N)=O)C(C)(C)C)c2ccccc21` / Uracil-DNA glycosylase (Homo sapiens) (UniProt P13051), inhibition recorded as -9.98

Record `CCOC(=O)c1ncn2c1CN(C)C(=O)c1cc(F)ccc1-2` / Uracil-DNA glycosylase (Homo sapiens) (UniProt P13051), inhibition recorded as -9.3

Record Cc1onc(O)c1CC(N)C(=O)O (stereo not given) / Uracil-DNA glycosylase (Homo sapiens) (UniProt P13051), inhibition recorded as -3.91

Record `CCCCc1nc(Cl)c(CO)n1Cc1ccc(-c2ccccc2-c2nnn[nH]2)cc1` / Uracil-DNA glycosylase (Homo sapiens) (UniProt P13051), inhibition recorded as -9.96

Record `C=C1/C(=C\C=C2/CCC[C@]3(C)[C@@H]([C@H](C)CCCC(C)(C)O)CC[C@@H]23)C[C@@H](O)C[C@@H]1O` / Uracil-DNA glycosylase (Homo sapiens) (UniProt P13051), inhibition recorded as -0.617

###

Kindly supply the reported inhibition values for the records listed here.
target: Methyl-CpG-binding domain protein 4 (Homo sapiens) (UniProt O95243); conditions: Compound Concentration 10.0 uM, Hit No;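 further: MBD4 activity read as fluorescence at 594 nm from cleavage and release of a quenched duplex DNA oligonucleotide, with APE1 coupled to incise the strand and raise turnover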
Sequence (O95243 whole entry, the tested form may be a part): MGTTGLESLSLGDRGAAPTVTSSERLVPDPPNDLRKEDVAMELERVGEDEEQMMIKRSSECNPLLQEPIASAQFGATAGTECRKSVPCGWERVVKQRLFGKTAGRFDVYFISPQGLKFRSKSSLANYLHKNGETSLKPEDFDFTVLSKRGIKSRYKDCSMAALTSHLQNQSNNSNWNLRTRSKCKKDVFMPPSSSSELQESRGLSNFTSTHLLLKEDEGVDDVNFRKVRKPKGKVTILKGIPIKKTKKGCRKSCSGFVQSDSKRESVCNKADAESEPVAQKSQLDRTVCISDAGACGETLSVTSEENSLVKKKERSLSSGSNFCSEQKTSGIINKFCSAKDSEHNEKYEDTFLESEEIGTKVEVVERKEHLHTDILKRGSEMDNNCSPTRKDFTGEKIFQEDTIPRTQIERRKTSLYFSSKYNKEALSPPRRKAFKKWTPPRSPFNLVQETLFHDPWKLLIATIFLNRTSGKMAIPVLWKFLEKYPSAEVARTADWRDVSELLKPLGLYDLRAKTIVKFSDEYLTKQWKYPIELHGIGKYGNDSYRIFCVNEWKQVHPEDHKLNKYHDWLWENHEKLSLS
Description: Inhibition of MBD4 by quantifying inhibition of MBD4-mediated cleavage and dissociation of quenched duplex DNA oligonucleotides, measured as fluorescence at 594 nm. To generate a functional strand incision and increase turn-over this assay is coupled to APE1.
Respond numerically; units are % and should not be typed.

// field: inhibition; key: `C[C@@H]1CN(c2cc(-c3nn(C)c4ccc(OC5(C)CC5)cc34)ncn2)C[C@H](C)O1` ; value = 67.5

// field: inhibition; key: `Cc1noc(-c2ccc(-c3ccc(CC(=O)O)cc3)cc2)c1NC(=O)O[C@H](C)c1ccccc1Cl` ; value = 45.9

// field: inhibition; key: `Nc1nc(CC(=O)Nc2ccc(CCNC[C@H](O)c3ccccc3)cc2)cs1` ; value = 6.31

// field: inhibition; key: `COc1cc(OC)c(NC(=O)Nc2cc(C)on2)cc1Cl` ; value = -2.96

// field: inhibition; key: `C[C@H](NC(=O)[C@H](Cc1ccccc1)NC(=O)[C@H](CCC(N)=O)NC(=O)CNC(=O)[C@@H]1CCCN1C(=O)[C@H](Cc1ccccc1)NC(=O)[C@@H](N)Cc1ccc(O)cc1)C(=O)N[C@@H](Cc1ccccc1)C(=O)N[C@@H](CO)C(=O)O` ; value = 12.6

// field: inhibition; key: COc1cc(N)c(Cl)cc1C(=O)NC1CN2CCC1CC2 (stereo not drawn) ; value = -9.33

// field: inhibition; key: `O=C(NC[C@@H]1[C@H]2CN(C(=O)OCc3cc(C(F)(F)F)cc(C(F)(F)F)c3)C[C@@H]12)c1ccc2[nH]nnc2c1` ; value = 48.7

// field: inhibition; key: `CC(C)C[C@H](NC(=O)c1cc2ccccc2s1)C(=O)N1CCN(C(=O)[C@H](CO)NS(=O)(=O)c2ccc(Cl)cc2Cl)CC1` ; value = -8.27

###

Kindly supply the reported inhibition values for the records listed here.
target: Endonuclease III-like protein 1 (Homo sapiens); details: Compound Concentration 1.0 uM, Hit No
Description: Inhibition of NTHL1 by quantifying inhibition of NTHL1-mediated cleavage and dissociation of quenched duplex DNA oligonucleotides, measured as fluorescence at 594 nm.
Respond numerically; units are % and should not be typed.

// field: inhibition; key: `CS(=O)(=O)c1cc(C2(NC(=O)c3cncc4c3cnn4-c3ccc(F)cc3)CC2)ccn1` ; value = 0.0274

// field: inhibition; key: `CC(C)(O)c1ccc(N2Cc3c(ccnc3-c3ccc(F)cc3OCC(F)(F)F)C2=O)cc1` ; value = -1.95

// field: inhibition; key: `CCN1CCN(c2ccc(Nc3cc(N(C)C(=O)Nc4c(Cl)c(OC)cc(OC)c4Cl)ncn3)cc2)CC1` ; value = 1.48

// field: inhibition; key: `Cc1n[nH]c2ncc(C(=O)N3CCC[C@H]3c3ccc(Cl)cc3)cc12` ; value = 7.06

// field: inhibition; key: `Cc1cnc(Nc2ccc(F)cc2Cl)nc1-c1c[nH]c(C(=O)N[C@H](CO)c2cccc(Cl)c2)c1` ; value = -6.19

// field: inhibition; key: `Cn1cc(-c2[nH]c3cc(NC(=O)[C@H](N)C4CCCCC4)cc4c3c2C=NNC4=O)cn1` ; value = -0.61

// field: inhibition; key: `NC1(c2ccc(-c3nc4c(O)ccnn4c3-c3ccccc3)cc2)CCC1` ; value = -7.86

// field: inhibition; key: `CN(C)CC#Cc1ccc2[nH]c3c(c2c1)-c1nc(N)ncc1CCC3` ; value = 10.6

// field: inhibition; key: `CCCCN(CCCC)C(=O)CN1C[C@H](c2cc(OC)c3c(c2)OCO3)[C@@H](C(=O)O)[C@@H]1CC(C)(C)CCC` ; value = 11.2

// field: inhibition; key: `CN1C(=O)[C@@H](N2CCc3c(nn(Cc4ccccc4)c3Br)C2=O)COc2ccccc21` ; value = -4.24

// field: inhibition; key: `CN(C)C(=O)Cn1cc(-c2nc([C@@](C)(c3ccc(-c4cnc(N)nc4)cc3)C3CC3)no2)cn1` ; value = -9.18

// field: inhibition; key: CS(=O)(=O)N1CCCC(NC(=O)[C@H](CCC2CCCCC2)NC(=O)c2ccc(CNC(=O)c3cnc4ccccn34)cc2)C1 (stereo partly drawn) ; value = 7.17

// field: inhibition; key: `CN1C(=O)[C@@H](N2CCc3cn(Cc4ccccc4)nc3C2=O)COc2ccccc21` ; value = 1.82

// field: inhibition; key: `O=C(Nc1ccc(-n2nc(-c3cccnc3)cc2C(F)(F)F)cn1)c1ccc(-c2ccccc2)c(F)c1` ; value = 0.685

// field: inhibition; key: `Cn1cc(C2=C(c3cn(C4CCN(Cc5ccccn5)CC4)c4ccccc34)C(=O)NC2=O)c2ccccc21` ; value = 2.88

// field: inhibition; key: `CC(C)CC(=O)N1CCc2nc(-c3ccc(Br)cc3)nc(N(C)Cc3ccccc3)c2C1` ; value = -3.26

// field: inhibition; key: `Cc1cc(F)c(C(=O)Nc2cccc(-c3nncn3C(C)C)n2)cc1-n1cnc(C2CC2)c1` ; value = -4.79

// field: inhibition; key: `COc1cccc(-c2nccc3c2CN(c2ccccc2)C3=O)c1` ; value = 4.63

###

biological target: Uracil-DNA glycosylase (Homo sapiens) (UniProt P13051); conditions: Compound Concentration 10.0 uM, Hit No;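 further: UNG excision on a quenched double-stranded DNA oligo probe, with APE1 added for strand incision and turnover, read as fluorescence at 594 nm as strands separate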
Kindly supply the reported inhibition values for the records listed here.
Respond numerically; units are % and should not be typed.

// field: inhibition; key: `COc1cc(N2CCC(O)CC2)ccc1Nc1cc(Nc2ccccc2S(=O)(=O)C(C)C)c2cc[nH]c2n1` ; value = 3.96

// field: inhibition; key: `Cc1nc(N2CC[C@@H](O)C2)ncc1-c1cc(C(F)(F)F)cc2[nH]ncc12` ; value = -1.48

// field: inhibition; key: CC(Cc1ccc(O)c(O)c1)C(C)Cc1ccc(O)c(O)c1 (centres undefined) ; value = 1.91

// field: inhibition; key: `O=C(NNS(=O)(=O)c1ccccc1)c1cc(-c2ccnnc2)ccc1F` ; value = 6.08

// field: inhibition; key: `COC(=O)/C=C/c1cccc(N(Cc2ccc(-c3ccc(N(C)C)cc3)cc2)C(=O)C2CCCCC2)c1` ; value = -3.03

// field: inhibition; key: `COc1ccc(OC)c(-c2ccc(NC(=O)c3ccncc3F)cc2)c1` ; value = 2.08

// field: inhibition; key: `CCNC(=O)N1CCCN(c2ccc(C(=O)NCCc3ccc(Cl)cc3Cl)cc2NC(=O)c2cccc(Cl)c2)CC1` ; value = 3.51

// field: inhibition; key: `CC(C)(N)C(=O)N[C@H](COCc1ccccc1)C(=O)N1CCC2(CC1)CN(S(C)(=O)=O)c1ccccc12` ; value = -9.48

// field: inhibition; key: `CC1=C2C[C@H]3[C@@H](CC=C4C[C@@H](O)CC[C@@]43C)[C@@H]2CC[C@]12O[C@@H]1C[C@H](C)CN[C@H]1[C@H]2C` ; value = -9.72

// field: inhibition; key: CC(CNS(=O)(=O)C(C)C)c1ccc(-c2ccc(C#N)cc2)cc1 (centres undefined) ; value = -7.52

// field: inhibition; key: c1ccc(C2CN3CCC2CC3)cc1 (centres undefined) ; value = -9.01

// field: inhibition; key: `O=C(N1CCS(=O)(=O)CC1)N1C[C@H](c2ccc(OC(F)(F)F)cc2)C[C@H](c2nc(C3CC3)no2)C1` ; value = -2.41

// field: inhibition; key: `O=c1cc(-c2cc(F)c(Cl)nc2Cl)[nH]c2c(-c3ccccc3)c(C(F)(F)F)nn12` ; value = 1.49

// field: inhibition; key: `CC(F)(F)CN1CCOc2c(nn(-c3ccccc3Cl)c2-c2ccc(Cl)cc2)C1=O` ; value = -4.73

// field: inhibition; key: `Nc1nc(Nc2ccccc2)nc2c1ncn2[C@@H]1O[C@H](CO)[C@@H](O)[C@H]1O` ; value = -5.2

// field: inhibition; key: `CN(C)CC[C@@H](c1ccc(Cl)cc1)c1ccccn1` ; value = -8.86

// field: inhibition; key: `COC(=O)c1sccc1S(=O)(=O)Nc1ccc(Nc2ccccc2)cc1OC` ; value = 0.459

// field: inhibition; key: `O=C(Nc1cccnc1)c1cc(-c2ccnc(F)c2)ccc1OCc1ccccc1` ; value = 2.47

// field: inhibition; key: `CNC(=O)c1cc(C(=O)N[C@H]2[C@@H]3COC[C@@H]32)cc2c1O[C@@H](CF)[C@@H]2c1ccccc1` ; value = 4.27

// field: inhibition; key: CSc1ccccc1N1CCN(CCCCCC(=O)NC2CCCc3ccccc32)CC1 (centres undefined) ; value = -4.03

// field: inhibition; key: `FC(F)(F)c1ccc(N2CCNCC2)nc1Cl` ; value = -2.44

// field: inhibition; key: `CN[C@@H](C)C/C=C/c1cncc(OC(C)C)c1` ; value = -5.51

// field: inhibition; key: `Cc1cccc(S(=O)(=O)N(C)[C@H](C)CCN2CCC(C)CC2)c1` ; value = -5.83

// field: inhibition; key: `c1ccc2oc(-c3csc(C4CCN(Cc5nc6ncccc6[nH]5)CC4)n3)cc2c1` ; value = -7.49

// field: inhibition; key: `CCOc1cc(N2CCC(O)CC2)ccc1Nc1ncc2c(n1)N(C1CCCC1)CCC(=O)N2C` ; value = -0.0214

// field: inhibition; key: `CCc1nnc(NS(=O)(=O)c2ccc(NC(=S)NC(=O)/C=C/c3ccc(F)cc3)cc2)s1` ; value = 3.3

// field: inhibition; key: `Clc1ccccc1C(c1ccccc1)(c1ccccc1)n1cccn1` ; value = -9.12

// field: inhibition; key: `CN(C)[C@H]1CCN(c2cc(-c3ccccc3)nc3ccnn23)C1` ; value = 9.72

// field: inhibition; key: `COc1ccc(CNC(=O)c2cc(-c3cncc(Cl)c3)cnc2-c2ccccn2)nc1OC` ; value = -5.71

// field: inhibition; key: `CCC[C@H]1CNCc2c1[nH]c(=O)c(C#N)c2N1CCC2(CC1)CC2` ; value = 0.94

// field: inhibition; key: `Cc1cc(NC(=O)NCCN2CCC(O)(Cc3ccccc3)CC2)c2ccccc2n1` ; value = -0.672

// field: inhibition; key: CC(C)NCC(O)COc1ccc(CCOCC2CC2)cc1 (centres undefined) ; value = -7.33

// field: inhibition; key: `O=C(Nc1cccnn1)N1CC(C/C=C/c2cncc(Oc3ccc(C(F)(F)F)cn3)n2)C1` ; value = -1.71

// field: inhibition; key: `CC(/C=C1\SC(=S)N(CCCC(=O)Nc2ccc(C(=O)O)c(O)c2)C1=O)=C\c1ccccc1` ; value = -7.24

// field: inhibition; key: `CC(C)(O)c1cn(-c2ccc(-c3cccc(S(C)(=O)=O)c3)cc2)c(C(C)(C)c2ccccc2Cl)n1` ; value = -9.54

// field: inhibition; key: CN1C2CCCC1CC(Nc1ccccc1Br)C2 (centres undefined) ; value = -6.41

// field: inhibition; key: `CCCSc1nc(N[C@@H]2C[C@H]2c2ccc(F)c(F)c2)c2nnn([C@@H]3C[C@H](OCCO)[C@@H](O)[C@H]3O)c2n1` ; value = -5.37

// field: inhibition; key: `CCOC(=O)c1ccc(CN(Cc2ccc(-c3cccc(S(C)(=O)=O)c3)cc2)S(=O)(=O)c2c(C)cc(C)cc2C)o1` ; value = 0.52

// field: inhibition; key: `Cc1nnc2ccc(-c3cccc(C(F)(F)F)c3)nn12` ; value = -4.72
